System: MOLT-4 leukemia
Assay: NCI-60 one-dose screen, 48 h (100 = growth as untreated, 0 = no growth, -100 = all killed)
Conditions: 10 µM unless noted
About 83,000 compounds went through this panel and 20% of them were active in at least one assay; those are over-represented in the sample as a whole.
Parameter growth: see the listing below.
Your answer is read as %, so omit the unit and give the number.

# compound, growth [%]
records = [
    ("COc1ccc2nc(-c3ccc(Cl)cc3)cc(-c3nnc(SCC(=O)Nc4ccc(/C(C)=N\\O)cc4)o3)c2c1", 12.4),
    ("CC1(C)Cc2c(Br)c(Br)c(Br)c(OCC(O)CN3CCOCC3)c2O1 (stereo not drawn)", 40.1),
    ("O=C(O)c1cc(N=Nc2ccc(-c3ccc(N=Nc4c(S(=O)(=O)O)cc5ccc(Nc6ccccc6)cc5c4O)cc3)cc2)ccc1O", 97.9),
    ("C#C[C@@]1(O)[C@@H](CO)O[C@@H](n2cc(F)c3c(N)ncnc32)[C@@H]1O", 4.47),
]

So what's the measured growth for this one? "COc1ccc2cc(/C=C3\N=C(c4cc(OC)c(OC)c(OC)c4)OC3=O)c(OC)nc2c1" 94.8

Fill in: growth of "C=C1C(=O)O[C@H]2[C@H]1CC/C(COC(=O)CCCCCCCC(=O)OC/C1=C/CC[C@@]3(C)O[C@H]3[C@H]3OC(=O)C(=C)[C@@H]3CC1)=C\CC[C@@]1(C)O[C@@H]21" is ___ 2.39

Please give the measured growth for this compound: "COc1cc(C2=N/C(=C\c3cc4ccccc4nc3Oc3ccccc3)C(=O)N2C(=N)N)cc(OC)c1OC" 85.1

What does the data say about its growth? Entry: CCCS(=O)(=O)Nc1ccc(F)c(C(=O)c2c[nH]c3ncc(-c4ccc(OCCCC5CCCCN5)nc4)cc23)c1F (stereo not drawn) 43.1

====

System: SK-MEL-2 melanoma
Assay: NCI-60 one-dose screen, 48 h (100 = growth as untreated, 0 = no growth, -100 = all killed)
Settings: 10 µM unless noted
Compounds without any hit were thinned out: in the full panel of roughly 83,000, 20% have a hit.
metric: growth (%)
The response must be a number in % with no trailing unit.

# compound, displayUnit, growth
rows = [
    ("Clc1ccc2c(NCCCNC3CCCCC3)ccnc2c1", "%", 107),
    ("c1ccc2c3c([nH]c2c1)C(c1ccc(C2NCCc4c2[nH]c2ccccc42)cc1)NCC3 (centres undefined)", "%", -13),
    ("O=C(O)CCNC1CCCCC1", "%", -21.2),
]

// lookup growth | system=SK-MEL-2 melanoma | key= O=C(Nc1ccc(S(=O)(=O)NC2CCCCCC2)cc1)C(c1ccccc1)S(=O)(=O)c1ccc(F)cc1 (centres undefined) -22.9

Form field - read-out: growth; system: SK-MEL-2 melanoma; submitted item: "COc1ccc2nc(-c3ccc(OC)c(OC)c3)cc(-c3nnc(SCC(=O)Nc4ccc(C(C)=O)cc4)o3)c2c1" 100

For the record "Cc1nc(C)c(C)nc1C" , what value of growth is listed for SK-MEL-2 melanoma? 97.9

Tell me reported growth for "C#CCN1C(=O)c2ccccc2N(CC#C)C12CCN(Cc1cn(CC(=O)Nc3ccccc3C(N)=O)nn1)CC2" , tested with SK-MEL-2 melanoma. 98.8

Look up growth with SK-MEL-2 melanoma for this compound: "CN1CCN(C(=O)[C@@]2(C)CC[C@]3(C)CC[C@]4(C)C(=CC[C@@H]5[C@@]6(C)CC[C@H](OC(=O)c7cccnc7)C(C)(C)[C@@H]6CC[C@]54C)[C@@H]3C2)CC1" 101

Fill in the recorded growth for this compound, with SK-MEL-2 melanoma as test system: "O=C(Nc1cccc(-c2cccc(F)c2)c1)C1CCN(Cc2cccc3cccnc23)CC1" 63.1

Every entry's value here was drawn from PubChem BioAssay (NCI).
